Just for reference, ChEMBL document CHEMBL5303304 is where these values come from.

system: HEK-293T; experiment: Incucyte cell viability with HEK293T; format: toxicity, cell-based; details: human, 24 h, 10 µM, compound concentration 10 uM, replicate number 2; note: unitless GR value; below 1 slowed growth and below 0 cell loss
value_type: Growth Rate

molecule: C[C@@]1(Cc2ccc(C#N)cc2)C(=O)N(c2cc(Cl)cc(Cl)c2)c2ncc(C(=O)NC3(c4nc(C5CCC5)no4)CC3)n21 [BI 9446]
measured_value: 0.48

molecule: CC1(C)CCC[C@]2(C)[C@@H](C=O)C(C=O)=CC[C@@H]12 [POLYGODIAL]
measured_value: 0.87

molecule: CNS(=O)(=O)c1ccc(N(C)C)c(Nc2ncnc3cc(OC)c(OC)cc23)c1
measured_value: 0.47

molecule: CN[C@@H](C)C(=O)N[C@H](C(=O)N1CCC[C@H]1C(=O)N[C@@H]1CCCc2ccccc21)C1CCCCC1.Cl
measured_value: 0.88

molecule: CC(C)(C)c1ccc(NC(=O)N2CCN(c3ncccc3Cl)CC2)cc1
measured_value: 0.17

molecule: CC(C)(C)c1cc(C(C)(C)C)c(NC(=O)c2c[nH]c3ccccc3c2=O)cc1O [IVACAFTOR]
measured_value: 0.72

molecule: CCOc1ccccc1C(=O)NCC1(N2CCN(CC)CC2)CCCCC1
measured_value: 0.46

molecule: Cc1ccc(-c2cn3nc(C(=O)NC4(c5ccc(F)cc5)CN(C)C4)c(C(C)C)c3c(=O)[nH]2)cc1C
measured_value: 0.09

molecule: Oc1cccc(Nc2ccnc3[nH]c4ccccc4c23)c1
measured_value: 0
